I'd appreciate it if you could supply Feeding Aphid, % lethality in population after adjustment for baseline values for the items below.
Test system: M. persicae
Assay: Feeding of aphids with peptides in artificial diet (Example 1)
Type: in vivo, Myzus persicae
Details: 10^−5 M
Square brackets hold non-standard residues; d marks the D form. NMeL = CN[C@@H](CC(C)C)C(=O)O; NMeV = CN[C@H](C(=O)O)C(C)C; NMeA = CN[C@@H](C)C(=O)O; Aib = CC(C)(N)C(=O)O
Entry rule: numbers only, all in %.

Recorded Feeding Aphid, % lethality in population after adjustment for baseline for H-LYAFARV-NH2 [AH188] on M. persicae was 23

Recorded Feeding Aphid, % lethality in population after adjustment for baseline for H-Ahx-LVAFPRV-NH2 [AH56] on M. persicae was 30

Recorded Feeding Aphid, % lethality in population after adjustment for baseline for H-LY-(Me)A-FARV-NH2 (H-LY[NMeA]FARV-NH2; SMILES CC(C)C[C@H](N)C(=O)N[C@@H](Cc1ccc(O)cc1)C(=O)N(C)[C@@H](C)C(=O)N[C@@H](Cc1ccccc1)C(=O)N[C@@H](C)C(=O)N[C@@H](CCCNC(=N)N)C(=O)N[C@H](C(N)=O)C(C)C) [AH382] on M. persicae was 12

Recorded Feeding Aphid, % lethality in population after adjustment for baseline for H-LY-Aib-FARV-NH2 (H-LY[Aib]FARV-NH2; SMILES CC(C)C[C@H](N)C(=O)N[C@@H](Cc1ccc(O)cc1)C(=O)NC(C)(C)C(=O)N[C@@H](Cc1ccccc1)C(=O)N[C@@H](C)C(=O)N[C@@H](CCCNC(=N)N)C(=O)N[C@H](C(N)=O)C(C)C) [AH387] on M. persicae was 14

Recorded Feeding Aphid, % lethality in population after adjustment for baseline for H-LYAFAR-(Me)V-NH2 (H-LYAFAR[NMeV]-NH2; SMILES CC(C)C[C@H](N)C(=O)N[C@@H](Cc1ccc(O)cc1)C(=O)N[C@@H](C)C(=O)N[C@@H](Cc1ccccc1)C(=O)N[C@@H](C)C(=O)N[C@@H](CCCNC(=N)N)C(=O)N(C)[C@H](C(N)=O)C(C)C) [AH380] on M. persicae was 12

Recorded Feeding Aphid, % lethality in population after adjustment for baseline for H-(Me)L-YAFARV-NH2 (H-[NMeL]YAFARV-NH2; SMILES CN[C@@H](CC(C)C)C(=O)N[C@@H](Cc1ccc(O)cc1)C(=O)N[C@@H](C)C(=O)N[C@@H](Cc1ccccc1)C(=O)N[C@@H](C)C(=O)N[C@@H](CCCNC(=N)N)C(=O)N[C@H](C(N)=O)C(C)C) [AH383] on M. persicae was 10
